- System: Staphylococcus aureus
- test_summary: Antibacterial activity against Staphylococcus aureus ATCC 29213 assessed as growth inhibition
- Format: functional
assay_readout: MIC

smiles_text	value_reported
CC[C@H]1OC(=O)[C@H](C)[C@@H](OC(=O)N2CC(C)(C)C[C@@H]2c2cccc3c2OCO3)[C@H](C)[C@@H](O[C@@H]2O[C@H](C)C[C@H](N(C)C)[C@H]2O)[C@](C)(OC)C[C@@H](C)C(=O)[C@H](C)[C@H]2NC(=O)O[C@@]21C	0.125 µg/mL
CC[C@H]1OC(=O)[C@H](C)[C@@H](OC(=O)N2CC(C)(C)C[C@@H]2c2ccc(Cl)cc2)[C@H](C)[C@@H](O[C@@H]2O[C@H](C)C[C@H](N(C)C)[C@H]2O)[C@](C)(OC)C[C@@H](C)C(=O)[C@H](C)[C@H]2NC(=O)O[C@@]21C	0.25 µg/mL
CC[C@H]1OC(=O)[C@H](C)[C@@H](OC(=O)N2CC(C)(C)C[C@@H]2c2cccc(Cl)c2Cl)[C@H](C)[C@@H](O[C@@H]2O[C@H](C)C[C@H](N(C)C)[C@H]2O)[C@](C)(OC)C[C@@H](C)C(=O)[C@H](C)[C@H]2NC(=O)O[C@@]21C	0.5 µg/mL
CC[C@H]1OC(=O)[C@H](C)[C@@H](OC(=O)N2CC(C)(C)C[C@@H]2c2ccc(Cl)cc2Cl)[C@H](C)[C@@H](O[C@@H]2O[C@H](C)C[C@H](N(C)C)[C@H]2O)[C@](C)(OC)C[C@@H](C)C(=O)[C@H](C)[C@H]2NC(=O)O[C@@]21C	0.25 µg/mL
CC[C@H]1OC(=O)[C@H](C)[C@@H](OC(=O)N2CC(C)(C)C[C@@H]2c2ccc3c(c2)OCO3)[C@H](C)[C@@H](O[C@@H]2O[C@H](C)C[C@H](N(C)C)[C@H]2O)[C@](C)(OC)C[C@@H](C)C(=O)[C@H](C)[C@H]2NC(=O)O[C@@]21C	0.25 µg/mL
CC[C@H]1OC(=O)[C@H](C)[C@@H](OC(=O)N2CCC[C@@H]2c2ccccc2)[C@H](C)[C@@H](O[C@@H]2O[C@H](C)C[C@H](N(C)C)[C@H]2O)[C@](C)(OC)C[C@@H](C)C(=O)[C@H](C)[C@H]2NC(=O)O[C@@]21C	0.5 µg/mL
CC(=O)NC[C@H]1CN(c2ccc(N3CCOCC3)c(F)c2)C(=O)O1	0.5 µg/mL
CC[C@H]1OC(=O)[C@H](C)[C@@H](O[C@H]2C[C@@](C)(OC)[C@@H](O)[C@H](C)O2)[C@H](C)[C@@H](O[C@@H]2O[C@H](C)C[C@H](N(C)C)[C@H]2O)[C@](C)(OC)C[C@@H](C)C(=O)[C@H](C)[C@@H](O)[C@]1(C)O	0.5 µg/mL
